Data provenance is patent US20100317621A1.

Would you kindly list IC50 for each of these compounds?
target: CTXM-15 β-lactamase (Escherichia coli); construct: The β-lactamases were extracted by four cycles of freezing and thawing followed by centrifugation; endogenous in cells; host or cells: Escherichia coli cells containing CTXM-15 (crude freeze-thaw extract); experiment: biochemical; type: biochemical; settings: crude enzyme extract, 10 min preincubation at 37° C., nitrocefin 100 μM, PBS pH 7.0; read-out: CTXM-15 IC50 Range
Sequence (Q9EXV5 29-291): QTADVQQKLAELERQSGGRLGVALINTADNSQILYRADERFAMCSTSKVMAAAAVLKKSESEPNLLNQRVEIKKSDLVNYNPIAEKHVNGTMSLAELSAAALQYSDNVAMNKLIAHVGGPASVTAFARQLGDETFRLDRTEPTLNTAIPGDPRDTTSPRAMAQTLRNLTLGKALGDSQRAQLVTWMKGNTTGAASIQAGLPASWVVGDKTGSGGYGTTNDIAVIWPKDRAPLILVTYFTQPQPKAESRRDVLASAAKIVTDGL
Structures can show the parent of a compound that is named as a salt.

[[record]]
compound = "O=C(Cc1ccc(O)cc1)N[C@@H](Cc1cccc(C(=O)O)c1)B(O)O"
system_tested = "CTXM-15 β-lactamase (Escherichia coli)"
result = "0.1 to 1 µM"

[[record]]
compound = "CN1CCC(Oc2cccc(CC(=O)NC(Cc3cccc(C(=O)O)c3)B(O)O)c2)C1 (centres unmarked)"
system_tested = "CTXM-15 β-lactamase (Escherichia coli)"
result = "0.1 to 1 µM"

[[record]]
compound = "O=C(CCCc1cccs1)N[C@@H](Cc1cccc(C(=O)O)c1)B(O)O"
system_tested = "CTXM-15 β-lactamase (Escherichia coli)"
result = "0.1 to 1 µM"


Provide reported IC50 for each item, in the same order as listed.
1. NCCOc1cccc(CC(=O)N[C@@H](Cc2cccc(C(=O)O)c2)B(O)O)c1
2. O=C(Cc1ccsc1)N[C@@H](Cc1cccc(C(=O)O)c1)B(O)O

1: < 0.1 µM; 2: 0.1 to 1 µM

Provide reported IC50 for each item, in the same order as listed.
1. O=C(Cc1cccc(C(F)(F)F)c1)N[C@@H](Cc1cccc(C(=O)O)c1)B(O)O
2. O=C(O)COc1cccc(CC(=O)N[C@@H](Cc2cccc(C(=O)O)c2)B(O)O)c1
3. NCCCOc1cccc(CC(=O)N[C@@H](Cc2cccc(C(=O)O)c2)B(O)O)c1 [Example 31, hydrochloride]
4. O=C(Cc1cccc(O)c1)N[C@@H](Cc1cccc(C(=O)O)c1)B(O)O

0.1 to 1 µM
0.1 to 1 µM
0.1 to 1 µM
< 0.1 µM

Provide reported IC50 for each item, in the same order as listed.
1. O=C(CCC(=O)c1cccs1)N[C@@H](Cc1cccc(C(=O)O)c1)B(O)O
2. O=C(Cc1cccs1)N[C@@H](Cc1ccc(F)c(C(=O)O)c1)B(O)O
3. COc1ccc(CC(=O)N[C@@H](Cc2cccc(C(=O)O)c2)B(O)O)c(Br)c1
4. O=C(Cc1ccc2ccccc2c1)N[C@@H](Cc1cccc(C(=O)O)c1)B(O)O
5. O=C(Cc1cccs1)N[C@@H](Cc1cccc(C(=O)O)c1)B(O)O
6. O=C(Cc1ccccc1Cl)N[C@@H](Cc1cccc(C(=O)O)c1)B(O)O

0.1 to 1 µM
< 0.1 µM
0.1 to 1 µM
< 0.1 µM
< 0.1 µM
> 1 µM

Provide reported IC50 for each item, in the same order as listed.
1. NC(=O)COc1cccc(CC(=O)N[C@@H](Cc2cccc(C(=O)O)c2)B(O)O)c1
2. O=C(Cc1ccc(C(F)(F)F)cc1)N[C@@H](Cc1cccc(C(=O)O)c1)B(O)O

< 0.1 µM
< 0.1 µM

* * *

target: SHV-5 β-lactamase (Klebsiella pneumoniae, UniProt P0A3M1); construct: The β-lactamases were extracted by four cycles of freezing and thawing followed by centrifugation; endogenous in cells; host or cells: Escherichia coli cells containing SHV-5 (crude freeze-thaw extract); test: biochemical; format: biochemical, Escherichia coli; details: crude enzyme extract, 10 min preincubation at 37° C., nitrocefin 100 μM, PBS pH 7.0; read-out: SHV-5 IC50 Range
Sequence (P0A3M1 22-286): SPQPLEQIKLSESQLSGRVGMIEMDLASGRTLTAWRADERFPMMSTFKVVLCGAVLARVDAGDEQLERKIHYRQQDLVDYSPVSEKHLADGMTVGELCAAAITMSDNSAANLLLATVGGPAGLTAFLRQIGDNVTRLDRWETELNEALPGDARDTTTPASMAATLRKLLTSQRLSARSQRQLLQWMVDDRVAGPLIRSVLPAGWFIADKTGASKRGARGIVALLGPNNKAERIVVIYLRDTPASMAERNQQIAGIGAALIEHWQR
pIC50: −log10 of the molar value.
EXPERIMENTAL ENDPOINT: pIC50

Field: example entries. Status: answers known.
[[record]]
molecule = "COc1ccc(CC(=O)N[C@@H](Cc2cccc(C(=O)O)c2)B(O)O)cc1 [Example 25]"
result = "> 7.00"

[[record]]
molecule = "O=C(O)COc1cccc(CC(=O)N[C@@H](Cc2cccc(C(=O)O)c2)B(O)O)c1 [Example 27]"
result = "> 7.00"

[[record]]
molecule = "NC(=O)COc1cccc(CC(=O)N[C@@H](Cc2cccc(C(=O)O)c2)B(O)O)c1 [Example 33]"
result = "> 7.00"

[[record]]
molecule = "O=C(Cc1ccccc1Br)N[C@@H](Cc1cccc(C(=O)O)c1)B(O)O [Example 20]"
result = "6.00 to 7.00"


Provide reported pIC50 for each item, in the same order as listed.
1. O=C(Cc1cccc(Br)c1)N[C@@H](Cc1cccc(C(=O)O)c1)B(O)O [Example 7]
2. O=C(Cc1cccs1)N[C@@H](Cc1ccc(Cl)c(C(=O)O)c1)B(O)O [Example 18]
3. O=C(Cc1cccc(C(=O)O)c1)N[C@@H](Cc1cccc(C(=O)O)c1)B(O)O [Example 17]
4. Cc1ccc(C(=O)O)cc1C[C@H](NC(=O)Cc1cccs1)B(O)O [Example 13]

["6.00 to 7.00", "> 7.00", "6.00 to 7.00", "> 7.00"]

* * *

Target: SHV-5 β-lactamase (Klebsiella pneumoniae)
Construct: The β-lactamases were extracted by four cycles of freezing and thawing followed by centrifugation; endogenous in cells; host or cells: Escherichia coli cells containing SHV-5 (crude freeze-thaw extract)
Assay: biochemical
Assay type: biochemical, Escherichia coli
Settings: crude enzyme extract, 10 min preincubation at 37° C., nitrocefin 100 μM, PBS pH 7.0; read-out: SHV-5 IC50 Range
Method: Isolation of β-lactamases. Crude β-lactamase extracts were prepared from 20 ml overnight cultures with shaking. […] The β-lactamases were extracted by four cycles of freezing and thawing followed by centrifugation. β-lactamase activity in the extracts was measured with the chromogenic cephalosporin nitrocefin. The amount of protein in each β-lactamase preparation was determined by the bicinchoninic acid (BCA) assay. […]
EXPERIMENTAL ENDPOINT: IC50

[[record]]
compound = "O=C(Cc1cccc2ccccc12)N[C@@H](Cc1cccc(C(=O)O)c1)B(O)O"
system_tested = "SHV-5 β-lactamase (Klebsiella pneumoniae)"
result = "> 1000 nM"


Provide reported IC50 for each item, in the same order as listed.
1. O=C(Cc1ccc(O)cc1)N[C@@H](Cc1cccc(C(=O)O)c1)B(O)O
2. NCCOc1cccc(CC(=O)N[C@@H](Cc2cccc(C(=O)O)c2)B(O)O)c1
3. O=C(Cc1ccc(Br)cc1)N[C@@H](Cc1cccc(C(=O)O)c1)B(O)O

["< 100 nM", "100 to 1000 nM", "100 to 1000 nM"]

* * *

Would you kindly list pIC50 for each of these compounds?
biological target: SHV-5 β-lactamase (Klebsiella pneumoniae, UniProt P0A3M1); construct: The β-lactamases were extracted by four cycles of freezing and thawing followed by centrifugation; endogenous in cells; host or cells: Escherichia coli cells containing SHV-5 (crude freeze-thaw extract); assay: biochemical; type: biochemical, Escherichia coli; details: crude enzyme extract, 10 min preincubation at 37° C., nitrocefin 100 μM, PBS pH 7.0; read-out: SHV-5 IC50 Range
pIC50: −log10 of the molar value.

[[record]]
compound = "COc1ccc(C(=O)CCC(=O)N[C@@H](Cc2cccc(C(=O)O)c2)B(O)O)cc1 [Example 38]"
result = "6.00 to 7.00"


Provide reported pIC50 for each item, in the same order as listed.
1. O=C(Cc1cccc(C(F)(F)F)c1)N[C@@H](Cc1cccc(C(=O)O)c1)B(O)O [Example 8]
2. O=C(Cc1ccc(C(F)(F)F)cc1)N[C@@H](Cc1cccc(C(=O)O)c1)B(O)O [Example 9]
3. COc1ccc(OC)c(CC(=O)N[C@@H](Cc2cccc(C(=O)O)c2)B(O)O)c1 [Example 4]
4. O=C(CCCc1cccs1)N[C@@H](Cc1cccc(C(=O)O)c1)B(O)O [Example 35]
5. O=C(Cc1ccc(Cl)cc1)N[C@@H](Cc1cccc(C(=O)O)c1)B(O)O [Example 19]
6. O=C(Cc1ccsc1)N[C@@H](Cc1cccc(C(=O)O)c1)B(O)O [Example 29]

6.00 to 7.00
> 7.00
< 6.00
6.00 to 7.00
> 7.00
> 7.00

Observed pIC50, SHV-5 β-lactamase (Klebsiella pneumoniae, UniProt P0A3M1), O=C(Cc1ccc2ccccc2c1)N[C@@H](Cc1cccc(C(=O)O)c1)B(O)O [Example 23] : > 7.00

* * *

molecular target: P99 AmpC β-lactamase (Enterobacter cloacae); construct: The β-lactamases were extracted by four cycles of freezing and thawing followed by centrifugation; endogenous in cells; host or cells: Enterobacter cloacae cells containing P99 (crude freeze-thaw extract); test: biochemical; assay type: biochemical; settings: crude enzyme extract, 10 min preincubation at 37° C., nitrocefin 100 μM, PBS pH 7.0; read-out: P99 AmpC IC50 Range
Sequence (P05364 21-381): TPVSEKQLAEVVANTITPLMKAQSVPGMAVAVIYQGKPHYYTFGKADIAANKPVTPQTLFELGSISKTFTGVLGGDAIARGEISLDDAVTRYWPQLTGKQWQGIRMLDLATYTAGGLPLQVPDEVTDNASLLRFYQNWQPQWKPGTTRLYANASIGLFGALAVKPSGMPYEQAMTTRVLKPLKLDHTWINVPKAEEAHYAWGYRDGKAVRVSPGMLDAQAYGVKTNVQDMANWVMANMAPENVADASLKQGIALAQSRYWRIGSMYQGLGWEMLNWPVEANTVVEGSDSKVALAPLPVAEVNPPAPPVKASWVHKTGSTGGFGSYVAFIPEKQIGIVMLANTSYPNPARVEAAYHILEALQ
Would you kindly list IC50 for each of these compounds?

Field: example entries. Status: answers known.
[[record]]
compound = "O=C(Cc1cccs1)N[C@@H](Cc1ccc(F)c(C(=O)O)c1)B(O)O"
experimental_endpoint = "IC50"
result = "100 to 1000 nM"

[[record]]
compound = "O=C(CC1CCCCC1)N[C@@H](Cc1cccc(C(=O)O)c1)B(O)O"
experimental_endpoint = "IC50"
result = "> 1000 nM"

[[record]]
compound = "O=C(Cc1ccc(Cl)cc1)N[C@@H](Cc1cccc(C(=O)O)c1)B(O)O"
experimental_endpoint = "IC50"
result = "100 to 1000 nM"

[[record]]
compound = "O=C(Cc1cccc(C(=O)O)c1)N[C@@H](Cc1cccc(C(=O)O)c1)B(O)O"
experimental_endpoint = "IC50"
result = "> 1000 nM"

[[record]]
compound = "COc1ccc(CC(=O)N[C@@H](Cc2cccc(C(=O)O)c2)B(O)O)c(Br)c1"
experimental_endpoint = "IC50"
result = "100 to 1000 nM"

[[record]]
compound = "COc1ccc(CC(=O)N[C@@H](Cc2cccc(C(=O)O)c2)B(O)O)cc1OC"
experimental_endpoint = "IC50"
result = "100 to 1000 nM"

[[record]]
compound = "O=C(Cc1cccc2ccccc12)N[C@@H](Cc1cccc(C(=O)O)c1)B(O)O"
experimental_endpoint = "IC50"
result = "> 1000 nM"

[[record]]
compound = "O=C(CCc1cccs1)N[C@@H](Cc1cccc(C(=O)O)c1)B(O)O"
experimental_endpoint = "IC50"
result = "> 1000 nM"

[[record]]
compound = "O=C(O)COc1cccc(CC(=O)N[C@@H](Cc2cccc(C(=O)O)c2)B(O)O)c1"
experimental_endpoint = "IC50"
result = "100 to 1000 nM"

[[record]]
compound = "CC(CO)Oc1cccc(CC(=O)N[C@@H](Cc2cccc(C(=O)O)c2)B(O)O)c1 (stereo partly drawn)"
experimental_endpoint = "IC50"
result = "100 to 1000 nM"


Provide reported IC50 for each item, in the same order as listed.
1. Cn1c(CC(=O)N[C@@H](Cc2cccc(C(=O)O)c2)B(O)O)cc2ccccc21
2. O=C(Cc1cc(F)ccc1F)N[C@@H](Cc1cccc(C(=O)O)c1)B(O)O
3. COc1ccc(CC(=O)N[C@@H](Cc2cccc(C(=O)O)c2)B(O)O)cc1
4. O=C(CCC(=NO)c1cccs1)N[C@@H](Cc1cccc(C(=O)O)c1)B(O)O
5. NCCOc1cccc(CC(=O)N[C@@H](Cc2cccc(C(=O)O)c2)B(O)O)c1
6. O=C(Cc1ccccc1Br)N[C@@H](Cc1cccc(C(=O)O)c1)B(O)O
7. O=C(Cc1cccs1)N[C@@H](Cc1cccc(C(=O)O)c1)B(O)O
8. O=C(Cc1cccs1)N[C@@H](Cc1ccc(Cl)c(C(=O)O)c1)B(O)O

1: 100 to 1000 nM; 2: 100 to 1000 nM; 3: 100 to 1000 nM; 4: 100 to 1000 nM; 5: 100 to 1000 nM; 6: 100 to 1000 nM; 7: 100 to 1000 nM; 8: 100 to 1000 nM
